Target: T1, human IL-23 (human, UniProt P29460 23-328; Q9NPF7 20-189)
T1 construct: Recombinant (Ebioscience); HIS-tagged in flow cytometry, biotinylated in some assays; also called hIL-23; rhIL-23
T1 sequence 1: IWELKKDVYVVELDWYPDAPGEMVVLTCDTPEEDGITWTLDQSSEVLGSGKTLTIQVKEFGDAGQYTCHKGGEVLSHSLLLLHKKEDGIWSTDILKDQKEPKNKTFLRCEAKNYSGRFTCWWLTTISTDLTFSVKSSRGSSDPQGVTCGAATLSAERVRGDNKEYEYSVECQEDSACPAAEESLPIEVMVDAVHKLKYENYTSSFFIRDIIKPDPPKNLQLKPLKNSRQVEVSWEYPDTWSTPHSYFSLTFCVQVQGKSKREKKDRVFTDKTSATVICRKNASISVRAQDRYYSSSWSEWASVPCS
T1 sequence 2: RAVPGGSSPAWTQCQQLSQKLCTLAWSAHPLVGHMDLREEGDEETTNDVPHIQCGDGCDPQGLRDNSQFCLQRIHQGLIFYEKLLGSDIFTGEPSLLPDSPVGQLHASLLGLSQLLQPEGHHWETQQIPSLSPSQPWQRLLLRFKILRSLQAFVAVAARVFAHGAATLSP
Assay: SPR, IgG on Protein A
Recorded kon for the following binders
# value in M⁻¹ s⁻¹; strip the unit string

Examples from the recorded data:
* Antibody 180 (antibody, human IgG1, kappa, V domains shown) VH: EVQLVQSGAEVKKPGATVKISCKASGYTLSDYYLHWVRQAPEKGLEWMGWIDPENGDTESAPKFQGRVTITADTSTDTGYLELSSLRSEDTAVYYCAANKELRYFDVWGQGTLVTVSS VL: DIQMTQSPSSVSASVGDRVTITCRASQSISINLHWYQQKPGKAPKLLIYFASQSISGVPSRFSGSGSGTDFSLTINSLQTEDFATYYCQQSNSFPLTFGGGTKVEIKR | 3.12e+06
* Antibody 136 (antibody, human IgG1, kappa, V domains shown, Humanized PMA204 (1RZ7 framework)) VH: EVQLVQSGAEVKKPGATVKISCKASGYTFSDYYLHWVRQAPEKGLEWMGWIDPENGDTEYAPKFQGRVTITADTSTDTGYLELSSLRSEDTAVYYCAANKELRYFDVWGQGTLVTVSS VL: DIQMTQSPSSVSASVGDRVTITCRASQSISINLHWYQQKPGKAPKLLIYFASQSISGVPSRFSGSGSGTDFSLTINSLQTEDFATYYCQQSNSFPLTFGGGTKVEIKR | 7.55e+06
* Antibody 205 (antibody, human IgG1, kappa, V domains shown) VH: QVQLVQSGAEVKKPGASVKVSCKASGYTFTDYYLHWVRQAPGRGLEWMGWIDPENGDTEYAPKFQGRVTMTTDTSTSTAYMELRSLRSDDTAVYYCAANKELRYFDVWGQGTMVTVSS VL: EIVMTQSPATLSVSPGERATLSCRASQSISINLHWYQQKPGQAPRLLIYFASQSISGIPARFSGSGSGTEFTLTISSLQSEDFAVYYCQQSNSFPLTFGGGTKVEIKR | 4.81e+06
* Antibody 198 (antibody, human IgG1, kappa, V domains shown) VH: QVQLVQSGAEVKKPGASVKVSCKASGYAFTDYYLHWVRQAPGQGLEWMGWIDPENGDTEYAPKFQGRVTMTTDTSTSTAYMELRSLRSDDTAVYYCAANKELRYFDVWGQGTMVTVSS VL: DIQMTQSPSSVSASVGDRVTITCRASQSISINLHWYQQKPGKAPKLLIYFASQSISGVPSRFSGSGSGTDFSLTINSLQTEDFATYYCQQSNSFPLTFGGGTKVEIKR | 4.65e+06

Problem: Quick one: kon of Antibody 177 (antibody, human IgG1, kappa, V domains shown) VH: EVQLVQSGAEVKKPGATVKISCKASGYTFSDYYLHWVRQAPEKGLEWMGWIDPENGDTESAPKFQGRVTITADTSTDTGYLELSSLRSEDTAVYYCAANKELRYFDVWGQGTLVTVSS VL: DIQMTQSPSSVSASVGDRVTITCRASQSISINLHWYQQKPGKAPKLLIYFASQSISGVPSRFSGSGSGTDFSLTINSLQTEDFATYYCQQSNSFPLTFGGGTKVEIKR ?
Result: 3.43e+06

Problem: Quick one: kon of Antibody 194 (antibody, human IgG1, kappa, V domains shown) VH: QVQLVQSGAEVKKPGASVKVSCKASGYTLTDYYLHWVRQAPGQGLEWMGWIDPENGDTESAPKFQGRVTMTTDTSTSTAYMELRSLRSDDTAVYYCAANKELRYFDVWGQGTMVTVSS VL: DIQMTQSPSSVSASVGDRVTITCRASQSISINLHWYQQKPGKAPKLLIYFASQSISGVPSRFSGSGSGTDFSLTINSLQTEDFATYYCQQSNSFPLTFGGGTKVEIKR ?
Result: 2.99e+06

Problem: Quick one: kon of Antibody 182 (antibody, human IgG1, kappa, V domains shown) VH: EVQLVQSGAEVKKPGATVKISCKASGYTLSDYYLHWVRQAPEKGLEWMGWIDPENGDTEHAPKFQGRVTITADTSTDTGYLELSSLRSEDTAVYYCAANKELRYFDVWGQGTLVTVSS VL: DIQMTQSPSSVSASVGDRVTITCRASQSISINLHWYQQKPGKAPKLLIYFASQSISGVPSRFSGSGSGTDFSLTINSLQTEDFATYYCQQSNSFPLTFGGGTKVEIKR ?
Result: 5.27e+06

Problem: Quick one: kon of Antibody 192 (antibody, human IgG1, kappa, V domains shown) VH: QVQLVQSGAEVKKPGASVKVSCKASGYTLTDYYLHWVRQAPGQGLEWMGWIDPENGDTEYAPKFQGRVTMTTDTSTSTAYMELRSLRSDDTAVYYCAANKELRYFDVWGQGTMVTVSS VL: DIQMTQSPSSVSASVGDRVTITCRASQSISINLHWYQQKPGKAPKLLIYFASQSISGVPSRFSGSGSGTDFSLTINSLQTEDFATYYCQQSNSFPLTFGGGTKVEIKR ?
Result: 2.66e+06
